I'd appreciate it if you could supply Act% values for the items below.
studyTarget: CepR (Burkholderia cenocepacia)
experimentDescription: CepR agonism in E. coli β-galactosidase reporter (Ec-reporter) JLD271 [pJN105-cepR + pSC11-cepI]
Assay type: cell-based, B. cenocepacia
conditionDescription: Table S2, Ec-reporter; screening conc. 100 μM
One number for each entry, in %.

Consider the reported Act% for these molecules:
>  <molecule>
O=C(N[C@H]1CCOC1=O)c1ccccc1 [Compound B8]

>  <reportedMeasurement>
10

$$$$
>  <molecule>
CCCCCCCCCC(=O)CC(=O)N[C@H]1CCOC1=O [3’O-C12-AHL, reference compound]

>  <reportedMeasurement>
98

$$$$
>  <molecule>
O=C(Cc1ccc(O)cc1)N[C@H]1CCOC1=O [Compound C23]

>  <reportedMeasurement>
-0.5

$$$$
>  <molecule>
CCCCCCCCCC(=O)CC(=O)Nc1ccccc1O [Control 14, reference compound]

>  <reportedMeasurement>
30

$$$$

Consider now this further molecule.
INPUT: Hi! What's the reported Act% for O=C(COc1ccc(C(F)(F)F)cc1)N[C@H]1CCOC1=O [Compound E23] on CepR (Burkholderia cenocepacia)?
OUTPUT: 89

----------
studyTarget: CepR (Burkholderia cenocepacia, UniProt B4EMD0)
Sequence (B4EMD0 1-239): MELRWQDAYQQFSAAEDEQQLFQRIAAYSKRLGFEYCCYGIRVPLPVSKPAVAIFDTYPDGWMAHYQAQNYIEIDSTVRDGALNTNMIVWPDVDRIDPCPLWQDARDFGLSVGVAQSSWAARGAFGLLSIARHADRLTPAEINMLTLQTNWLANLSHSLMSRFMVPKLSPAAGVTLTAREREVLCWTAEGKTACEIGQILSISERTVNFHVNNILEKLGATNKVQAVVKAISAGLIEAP
experimentDescription: CepR agonism in E. coli β-galactosidase reporter (Ec-reporter) JLD271 [pJN105-cepR + pSC11-cepI]
Type: cell-based, B. cenocepacia
conditionDescription: Table S2, Ec-reporter; screening conc. 100 μM
Answer F if Act% is under 30%, and T if it is 30% or more.

INPUT: Record O=C(COc1ccc(F)cc1)N[C@H]1CCOC1=O [Compound E19] ; criterion: Act% no lower than 30%. Met?
OUTPUT: T

INPUT: Hi team, for O=C(Cc1ccc(F)c(C(F)(F)F)c1)N[C@H]1CCOC1=O [Compound E10] , is the recorded Act% at or above 30%?
OUTPUT: F

INPUT: Form field: Act% at least 30%? Entry: O=C(CCCC1CCCCC1)N[C@H]1CCOC1=O [Compound S6]
OUTPUT: T

INPUT: # bool: Act% of Cc1ccc(CC(=O)N[C@H]2CCOC2=O)cc1 [Compound C19] >= 30%
OUTPUT: F

INPUT: Does O=C(Cc1c[nH]c2ccccc12)N[C@H]1CCOC1=O [Compound B13] have a reported Act% of at least 30%?
OUTPUT: F

INPUT: Check if Act% >= 30% (inclusive). Item: COc1ccc(C(=O)N[C@H]2CCOC2=O)cc1 [Compound Q6]
OUTPUT: F

INPUT: Exam item: decide whether the reported Act% for O=C(Cc1ccc(C(F)(F)F)cc1)N[C@H]1CCOC1=O [Compound C20] is at least 30%.
OUTPUT: F

INPUT: Does the reported Act% for O=C(CCc1c[nH]c2ccccc12)N[C@H]1CCOC1=O [Compound B14] fall at or above the 30% mark?
OUTPUT: T

INPUT: Does Act% meet or surpass 30% for COc1cccc(CC(=O)N[C@H]2CCOC2=O)c1 [Compound E2] ?
OUTPUT: F

INPUT: Act% >= 30% for O=C(Cc1ccc(-c2ccccc2)cc1)NC1CCCC1 [Compound F20] ?
OUTPUT: F
